B1: 2K2A (parent)
chain: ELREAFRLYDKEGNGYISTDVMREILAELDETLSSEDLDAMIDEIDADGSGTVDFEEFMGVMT

Variants of: B1
ASSAY_NAME: folding stability dG (cDNA display proteolysis); higher = more stable
EXPERIMENTAL_CONTEXT: PBS, room temperature
ENDPOINT_LABEL: folding stability dG (kcal/mol)
Give bare numbers, in kcal/mol.

The cases that follow already have their folding stability dG on record.
>>> test_value("G49R")
1.95
>>> test_value("S18L")
1.41

Batch lookup, folding stability dG per entry.
1. V21H
2. E36M

[1.77, 1.7]

The origin of these recorded values is the MegaScale stability set (Tsuboyama et al. 2023).
